B1: Retinoic acid receptor beta, residues 85 to 161; numbered along this chain, P10826 (parent)
chain: YKPCFVCQDKSSGYHYGVSACEGCKGFFRRSIQKNMIYTCHRDKNCVINKVTRNRCQYCRLQKCFEVGMSKESVRND

Variants of: B1
Assay: abundance fitness (aPCA) (normalised: wild type 0, dead -1); higher = more abundant; growth selection in yeast, the domain comes from the species named
Details: Homo sapiens
resultType: abundance fitness
Just the number, please.

Can you look up the measured abundance fitness of G26N for me?
0.246

G23C ?
0.108

H41L ?
-0.077
